EXPERIMENTAL TARGET: T1, CD27 protein (His-tagged, Sino Biological Inc. 10039-H08B1) (human, UniProt P26842 20-192)
T1 construct: bought; coated onto ELISA plates; also called human CD27; recombinant protein; not shown: His tag
T1 sequence (looked up): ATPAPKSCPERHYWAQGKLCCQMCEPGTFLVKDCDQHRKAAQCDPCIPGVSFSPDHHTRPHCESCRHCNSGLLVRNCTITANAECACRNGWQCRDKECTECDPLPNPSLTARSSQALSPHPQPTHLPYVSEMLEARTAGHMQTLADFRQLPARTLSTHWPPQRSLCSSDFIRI
PROTOCOL SUMMARY: ELISA on coated His-tagged CD27; also: test concentration or dose not given here
ASSAY ENDPOINT: ELISA [abs. corr.] (abs. corr.)

BINDER	ENDPOINT VALUE
P018.S.03.A.G03 (antibody, V domains shown, V regions on human Ig constant parts; also called AB27_57) VH: QEHLEESGGGLVQPEGSLTLTCKASGFDFSSNYYMSWVRQAPGTGLEWIACIDSGSSGSTWYASWVKGRFTISKTSSTTVTLQMTSLTDADTAAYFCVRDDVGSSYEYYFSLWGPGTLVTVSS VL: DVVMTQTPASVSEPVGGTVTIKCQASQSIGSFLGWYQQKPGQPPKLLIYQASKLASGVPSRFKGSGSGTEYTLTISDLESADAAAYYCQTYFGSDSYVFGGGTEVVVK	3.21
P018.S.01.A.C02 (antibody, V domains shown, V regions on human Ig constant parts; also called AB27_7) VH: QSLEESGGDLVQPGASLTLTCTASGLDFISSYMCWVRQAPGKGLEWIGCIAPGGGNTYYATWAKGRFTFSETSSTTVTLQMTSLTAADTATYFCARTYPSIWYFGLWGPGTLVTVSS VL: DVVMTQTPASVSEPVGGTVTIKCQASQSIGSNLGWYQQKPGQPPKLLIYGASTLASGVSSRFKGSGSGTEFTLTMSDLESADAATYYCQSFYAASSAFGGGTEVVVK	3.25

Numbers sourced from patent US20210253725A1.
